Reported normalized growth is given for each of the following compounds.
# ASSAY PROCEDURE: chemical genetic growth profiling, strain panel (AID 1159580);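 also: tested at 20 µM; growth read once vehicle control cultures reached saturation at 30 °C; 1 = growth at the plate median or of vehicle wells; lower values mean less growth of the strain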
# EXPERIMENTAL SETUP: S. cerevisiae deletion strains, growth OD, locus YJL129C, strain trk1, stronger effect = lower value
The campaign covered roughly 5,500 compounds. About 2,000 (36%) were called active. Another 18% or so got no clear call; they are omitted. The list shows a part of the results.
REPORTED ENDPOINT: normalized growth

- NCC(CC(=O)O)c1ccc(Cl)cc1 (centres undefined): 1
- COc1ccc(C(=O)CC(=O)c2ccc(C(C)(C)C)cc2)cc1: 0.918
- CN(C)CCOC(=O)C(c1ccccc1)C1(O)CCCC1 (centres undefined): 0.96
- COc1ccc(C(=O)N2CCCC2=O)cc1: 1.01
